Assign growth to each entry below.
- System: 786-0 renal
- test-method-notes: NCI-60 one-dose screen, 48 h (100 = growth as untreated, 0 = no growth, -100 = all killed)
- condition-parameters: 10 µM unless noted
About 83,000 compounds went through this panel and 20% of them were active in at least one assay; those are over-represented in the sample as a whole.
Give bare numbers, in %.

Some entries whose results are on file:
[
  {
    "smiles-record": "C=C1C(=O)O[C@H]2[C@H]1CC/C(COC(=O)NCc1ccc(Cn3c(=O)sn(-c4ccc(I)cc4)c3=O)cc1)=C\\CC[C@@]1(C)O[C@@H]21",
    "unit-string": "%",
    "growth": 75.2
  },
  {
    "smiles-record": "N#CSc1c[nH]c2ccc(/C=C/C(=O)/C=C(O)/C=C/c3ccc4[nH]cc(SC#N)c4c3)cc12",
    "unit-string": "%",
    "growth": 13.9
  }
]

Below are 2 compounds. Give each one its growth.
1. C=C[C@@]1(C)CC(=O)[C@@H](C(C)(C)c2cn(C)c3ccc(Br)cc23)C[C@@H]1O[Si](C)(C)C(C)(C)C
2. COc1ccc(-c2cc(-c3cccnc3)nc3sc4c(N)c(C(C)=O)c(-c5ccccc5)nc4c23)cc1OC

Found:
1: 97.4; 2: 68.9

* * *

- System: EKVX NSCLC
- test-method-notes: NCI-60 one-dose screen, 48 h
- condition-parameters: 10 µM unless noted
- Description: Growth inhibition of the EKVX human Non-Small Cell Lung tumor cell line is measured as a screen for anti-cancer activity. Cells are grown in 96 well plates and exposed to the test compound for 48 hours. Compounds are tested at a single concentration, which is 10^-5 M for most compounds. The reported endpoint is percent growth (GI% or GIPRCNT), where numbers from 0 - 100% represent growth inhibition, and numbers from -100% - 0 represent cell death. […]
About 83,000 compounds went through this panel and 20% of them were active in at least one assay; those are over-represented in the sample as a whole. Activity calls are given as the source filed them. The calls were made as follows: active = growth percent below 10; inactive = the rest.
Your response should consist of one outcome taken from active, inactive

Record excerpt, results attached:
[
  {
    "compound": "CN(C)Cc1ccc(NC(=O)c2cncc(C#Cc3cnc(N)c4ncccc34)c2)cc1C(F)(F)F",
    "assigned-class": "inactive"
  },
  {
    "compound": "CN1CCOCCN(C)Cc2ccc3ccc(cc3c2)CN(C)CCOCCN(C)Cc2ccc3ccc(cc3c2)C1",
    "assigned-class": "inactive"
  },
  {
    "compound": "C#CCOc1ccc2nc(CCl)c(Cl)c(Nc3cccc(C(F)(F)F)c3)c2c1",
    "assigned-class": "inactive"
  },
  {
    "compound": "CN(C)CCn1c(=O)c2ccccc2n2nc3ccccc3c12",
    "assigned-class": "inactive"
  },
  {
    "compound": "COc1cc(-c2ccc[nH]2)[nH]c1/C=C1\\N=C(C)C(CC(=O)OCC(C)(C)C)=C1C",
    "assigned-class": "active"
  },
  {
    "compound": "Cc1ccc2cnc(N)c(C#Cc3cc(C(=O)Nc4ccc(CN5CCN(C)CC5)c(C(F)(F)F)c4)cnc3C)c2c1",
    "assigned-class": "inactive"
  }
]

Please examine the following record next.
Lookup: I'd appreciate the recorded outcome for N#Cc1ccc(O)c(C2=NCC(c3ccc(-c4ccccc4)cc3)O2)c1 (stereo not given) from this test.
Found: inactive
